- assay.info: chemical genetic growth profiling, strain panel (AID 1159580);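 also: tested at 20 µM; growth read once vehicle control cultures reached saturation at 30 °C; 1 = growth at the plate median or of vehicle wells; lower values mean less growth of the strain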
- measurement.setup: S. cerevisiae deletion strains, growth OD, locus YOR270C, strain vph1, stronger effect = lower value
Screen size: about 5,500 compounds; about 2,000 (36%) were called active. Another 18% or so got no clear call; they are omitted. The list shows a part of the results.
Reported normalized growth values follow for various compounds
property: normalized growth

1) CC(=O)O[C@@H]1CC2C(C)(CC[C@H](O)C2(C)C)C2CC[C@]3(C)C(=CC(=O)O[C@H]3c3ccoc3)C21C (stereo partly specified) | 0.965
2) Cc1ncc(CO)c(CO)c1O | 1.08
3) CSc1nc(NC(C)C)nc(NC(C)C)n1 | 0.934
4) COc1nc(NC(C)C)nc(NC(C)C)n1 | 1.06
5) CC1(C)C(O)CC(=O)C2(C)C1CC(O)C1(C)C2CCC2(C)C(c3ccoc3)OC(=O)C3OC321 (stereo unspecified) | 1.03
6) COC1=CC(=O)C=C(OC)C1=O | 0.94
7) O=C(CCCN1CCC(O)(c2ccc(Cl)cc2)CC1)c1ccc(F)cc1 | 0.381
8) O=S(=O)(O)O | 1
9) COC(=O)C(N)CS (stereo unspecified) | 0.805
10) O=C(CCCN1CCN(c2ccccn2)CC1)c1ccc(F)cc1 | 0.541
11) C[C@@H]1CC[C@@]23CCC4(C)[C@@](C=CC5[C@@]6(C)CCC(=O)C(C)(C)C6CC[C@]54C)(OC2=O)C3[C@H]1C (stereo partly specified) | 1.03
